System: Escherichia coli
Assay: Antibacterial activity against Escherichia coli ATCC 25922 measured after 18 to 20 hrs by microbroth dilution method
Format: functional
property.measured: MIC (µM)
Use µM as the unit, but write only the number.

State, in one line, measured MIC of CC(=O)OC[C@H]1O[C@@H](n2cc(COc3ccc4c(c3)OC(N)=C(C#N)C4c3ccc(Br)cc3)nn2)[C@H](OC(C)=O)[C@@H](OC(C)=O)[C@@H]1OC(C)=O (stereo not given in full)
100

Name the recorded MIC of the compound listed here: CC(=O)OC[C@H]1O[C@@H](n2cc(COc3ccc4c(c3)OC(N)=C(C#N)C4c3cccc([N+](=O)[O-])c3)nn2)[C@H](OC(C)=O)[C@@H](OC(C)=O)[C@@H]1OC(C)=O (stereo not given in full)
50

Provide one value: measured MIC of COc1ccc(C2C(C#N)=C(N)Oc3cc(OCc4cn([C@@H]5O[C@H](COC(C)=O)[C@@H](OC(C)=O)[C@H](OC(C)=O)[C@H]5OC(C)=O)nn4)ccc32)cc1 (stereo not given in full)
200

For the compound CC(=O)OC[C@H]1O[C@@H](n2cc(COc3ccc4c(c3)OC(N)=C(C#N)C4c3ccccc3)nn2)[C@H](OC(C)=O)[C@@H](OC(C)=O)[C@@H]1OC(C)=O (stereo not given in full) , report MIC.
400

Quickly give me recorded MIC for CC(=O)OC[C@H]1O[C@@H](n2cc(COc3ccc4c(c3)OC(N)=C(C#N)C4c3ccc([N+](=O)[O-])cc3)nn2)[C@H](OC(C)=O)[C@@H](OC(C)=O)[C@@H]1OC(C)=O (stereo not given in full)
400

###

Test system: Klebsiella pneumoniae
Experiment: Antibacterial activity against measured after Klebsiella pneumoniae ATCC 4352 measured after 18 to 20 hrs by microbroth dilution method
Assay type: functional
property.measured: MIC
Kindly format the answer as number then unit.

Please report the measured MIC for CC(=O)OC[C@H]1O[C@@H](n2cc(COc3ccc4c(c3)OC(N)=C(C#N)C4c3cccc(Cl)c3)nn2)[C@H](OC(C)=O)[C@@H](OC(C)=O)[C@@H]1OC(C)=O (stereo partly drawn)
3.12 µM

Dear colleague, please send me the reported MIC for COc1cccc(C2C(C#N)=C(N)Oc3cc(OCc4cn([C@@H]5O[C@H](COC(C)=O)[C@@H](OC(C)=O)[C@H](OC(C)=O)[C@H]5OC(C)=O)nn4)ccc32)c1 (stereo partly drawn) when you can.
6.25 µM

Let me know recorded MIC for CC(=O)OC[C@H]1O[C@@H](n2cc(COc3ccc4c(c3)OC(N)=C(C#N)C4c3ccc(Br)cc3)nn2)[C@H](OC(C)=O)[C@@H](OC(C)=O)[C@@H]1OC(C)=O (stereo partly drawn) , thanks.
200 µM

###

Please provide measured MIC for the entries that follow.
Tested on: Escherichia coli
Experiment: Antibacterial activity against Escherichia coli ATCC 25922 measured after 18 to 20 hrs by microbroth dilution method
Assay type: functional
Number plus unit, in that order.

Provide MIC value for the following molecule: O=C(O)c1cn(C2CC2)c2cc(N3CCNCC3)c(F)cc2c1=O
1.56 µM

Find the measured MIC of CC(=O)OC[C@H]1O[C@@H](n2cc(COc3ccc4c(c3)OC(N)=C(C#N)C4c3ccccc3[N+](=O)[O-])nn2)[C@H](OC(C)=O)[C@@H](OC(C)=O)[C@@H]1OC(C)=O (stereo partly drawn) and report it.
50 µM

Report MIC, nothing else, for this molecule: CC(=O)OC[C@H]1O[C@@H](n2cc(COc3ccc4c(c3)OC(N)=C(C#N)C4c3ccc(Cl)cc3)nn2)[C@H](OC(C)=O)[C@@H](OC(C)=O)[C@@H]1OC(C)=O (stereo partly drawn)
1.56 µM

Tell us which MIC value is on record for CC(=O)OC[C@H]1O[C@@H](n2cc(COc3ccc4c(c3)OC(N)=C(C#N)C4c3ccccc3Cl)nn2)[C@H](OC(C)=O)[C@@H](OC(C)=O)[C@@H]1OC(C)=O (stereo partly drawn)
1.56 µM

Tell us which MIC value is on record for CC(=O)OC[C@H]1O[C@@H](n2cc(COc3ccc4c(c3)OC(N)=C(C#N)C4c3ccc(N(C)C)cc3)nn2)[C@H](OC(C)=O)[C@@H](OC(C)=O)[C@@H]1OC(C)=O (stereo partly drawn)
12.5 µM

Specify measured MIC for CC(=O)OC[C@H]1O[C@@H](n2cc(COc3ccc4c(c3)OC(N)=C(C#N)C4c3ccc(C)cc3)nn2)[C@H](OC(C)=O)[C@@H](OC(C)=O)[C@@H]1OC(C)=O (stereo partly drawn) .
12.5 µM

Note MIC for the molecule shown: COc1cccc(OC)c1C(=O)N[C@@H]1C(=O)N2[C@@H]1SC(C)(C)[C@@H]2C(=O)O
400 µM

Give reported MIC value for CN[C@H](CC(C)C)C(=O)N[C@H]1C(=O)N[C@@H](CC(N)=O)C(=O)N[C@H]2C(=O)N[C@H]3C(=O)N[C@H](C(=O)N[C@H](C(=O)O)c4cc(O)cc(O)c4-c4cc3ccc4O)[C@H](O)c3ccc(c(Cl)c3)Oc3cc2cc(c3O[C@@H]2O[C@H](CO)[C@@H](O)[C@H](O)[C@H]2O[C@H]2C[C@](C)(N)[C@H](O)[C@H](C)O2)Oc2ccc(cc2Cl)[C@H]1O
3.12 µM
